# protocol-description: chemical genetic growth profiling, strain panel (AID 1159580);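 note: tested at 20 µM; growth read once vehicle control cultures reached saturation at 30 °C; 1 = growth at the plate median or of vehicle wells; lower values mean less growth of the strain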
# condition-context: S. cerevisiae deletion strains, growth OD, locus YOR144C, strain elg1
Among all 5,500 compounds or so, about 2,000 (36%) were called active. About 18% were inconclusive and are not listed. Cut-off read from the data, not from the text of the source: active = normalized growth mostly below about 0.91 (no sharp cut-off); inconclusive = no clear call, values can overlap the other calls; inactive = mostly above about 0.92. Some of the results follow.
Thanks in advance; please answer with one of these: 1 = active, -1 = inactive

A selection of reference data follows.
{"columns": ["compound", "classification"],
 "data": [
  ["C=C(C)C1Cc2c(ccc(C(=O)O)c2O)O1 (centres undefined)", -1],
  ["NS(=O)(=O)c1cc2c(cc1Cl)NCNS2(=O)=O", -1],
  ["CC(C)[C@@H]1CC[C@@H](C)C[C@H]1OC(=O)c1ccccc1", -1],
  ["C=C[C@H]1CN2CC[C@H]1C[C@H]2[C@H](O)c1ccnc2ccccc12", -1],
  ["O=c1c(O)c(-c2ccccc2)oc2ccccc12", -1]
]}

Enquiry: Status in this test for CC(C)OC(=O)Nc1cccc(Cl)c1 ?
Return: -1

Enquiry: Please share the test call associated with CC(C)c1cc2c(c(O)c1O)[C@@]1(C(=O)O)CCCC(C)(C)C1CC2 (some centres undefined) .
Return: -1

Enquiry: Identify the outcome logged in this assay for the compound shown: COC1=CC23CCCN2CCc2cc4c(cc2C3C1O)OCO4 (centres undefined)
Return: -1

Enquiry: Name the outcome recorded for CCCc1ncc(C[n+]2ccccc2C)c(N)n1 in the assay.
Return: -1

Enquiry: Record lookup: outcome of this test for O=C1c2cccc(O)c2C(=O)c2c(O)cccc21 ?
Return: 1

Enquiry: Check the results log: what was the call for O=c1c(O)c(-c2ccccc2)oc2cc(O)ccc12 ?
Return: -1

Enquiry: Outcome logged for C=C(C)C1Cc2c(ccc3c(=O)c4c(oc23)COc2cc(OC)c(OC)cc2-4)O1 (centres undefined) in this assay:
Return: -1

Enquiry: Lab log entry: CC(=O)OCC1=C(C(=O)O)N2C(=O)[C@@H](NC(=O)CSc3ccncc3)[C@H]2SC1 — outcome as called in the assay?
Return: -1

Enquiry: Record lookup: outcome of this test for C[C@]12[C@H](O)CC3C(CC[C@@H]4C[C@@H](O)CC[C@]34C)[C@@]1(O)CC[C@@H]2C1=CC(=O)OC1 (some centres undefined) ?
Return: -1

Enquiry: I'd appreciate the recorded outcome for O=c1c(O)c(-c2ccccc2)oc2ccc3occc3c12 from this test.
Return: 1
